# target or system: FGFR3 (UniProt P22607)
# Sequence (P22607 whole entry, looked up): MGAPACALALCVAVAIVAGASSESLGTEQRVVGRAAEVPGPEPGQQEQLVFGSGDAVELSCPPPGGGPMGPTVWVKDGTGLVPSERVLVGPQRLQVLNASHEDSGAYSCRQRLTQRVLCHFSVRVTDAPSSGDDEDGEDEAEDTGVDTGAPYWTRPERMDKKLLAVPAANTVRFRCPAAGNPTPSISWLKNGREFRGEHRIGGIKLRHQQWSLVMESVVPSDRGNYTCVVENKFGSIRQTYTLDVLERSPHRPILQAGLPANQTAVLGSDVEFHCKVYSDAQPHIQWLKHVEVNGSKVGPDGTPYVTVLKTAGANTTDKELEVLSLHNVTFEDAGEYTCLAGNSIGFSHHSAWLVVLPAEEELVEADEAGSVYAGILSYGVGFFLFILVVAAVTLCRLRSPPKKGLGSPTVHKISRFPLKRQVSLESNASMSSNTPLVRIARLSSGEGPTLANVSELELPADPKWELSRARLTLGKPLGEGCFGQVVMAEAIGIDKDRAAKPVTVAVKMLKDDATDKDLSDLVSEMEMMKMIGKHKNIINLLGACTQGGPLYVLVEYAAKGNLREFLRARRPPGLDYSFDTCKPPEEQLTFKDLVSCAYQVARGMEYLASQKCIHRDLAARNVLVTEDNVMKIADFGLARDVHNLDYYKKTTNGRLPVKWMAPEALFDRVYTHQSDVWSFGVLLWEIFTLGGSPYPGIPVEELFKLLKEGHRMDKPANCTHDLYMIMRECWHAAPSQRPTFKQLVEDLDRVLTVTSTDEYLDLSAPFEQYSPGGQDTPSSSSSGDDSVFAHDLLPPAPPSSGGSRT
# assay explanation: phosphorylation enrichment, bacterial display (enrichment ratio); higher = better substrate or ligand; peptides without Tyr show the background;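 also: 11-residue human phosphosite peptides and single-mutation variants displayed on the E. coli surface, counted by deep sequencing, each peptide's frequency after selection divided by its frequency in the unselected input library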;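 also: frequency after pTyr selection over input frequency; kinase dosed for 20-30% of maximal phosphorylation in three min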
parameter: phosphorylation enrichment

>>> result("HICTAYELVLA [DHCR24_Y190]")
2.2
>>> result("THEVRYISAGQ [SLCO4A1_Y77_V78I]")
0.53
>>> result("TTKAKYKTPTY [PLD2_Y573]")
0.32
>>> result("NYYDTYIKTCL [IQGAP2_Y1445]")
5.88
>>> result("LEKISYVYMKR [SSX7_Y48]")
1.32
>>> result("DTNIAYWLHPR [POMT1_Y581]")
1.23

Now turn to the next sequence.
Check the records and state phosphorylation enrichment for ALTDNYMFVVI [HAGH_Y61_L64V_YF]
6.54

----------
# Test system: Fer (mouse)
# assay explanation: phosphorylation enrichment, bacterial display (enrichment ratio); higher = better substrate or ligand; peptides without Tyr show the background
Property: phosphorylation enrichment; scope: individual sequences
Give a plain numeric answer without units written out.

Solved cases below.
>>> result("PVGDAYKKKGL [NMNAT1_Y55]")
0.609
>>> result("AAILGYCHGEA [XPC_Y669_R671H]")
0.474
>>> result("HEGKIYEYNQV [ZNF665_Y162]")
18.4
>>> result("TGDFGYRTPGF [TNS2_Y668_A670T_YF]")
0.399
>>> result("ESSKAYERALS [TTC37_Y1074]")
0.418

Check the records and state phosphorylation enrichment for NIEPVYLNMLL [ATR_Y317]
10.5

----------
# System: AncSZ
# assay explanation: phosphorylation enrichment, bacterial display (enrichment ratio); higher = better substrate or ligand; peptides without Tyr show the background
parameter: phosphorylation enrichment
Give a plain numeric answer without units written out.

Solved cases below.
>>> result("FLAVGYHKPFI [IDS_Y225_H229Y_YF]")
0.701
>>> result("ENFSEYQEIAV [HEMGN_Y150]")
1.51
>>> result("GDEEDYEEIPG [EGFR_opt_E_2015]")
1.36
>>> result("IKKLIYVYLVI [JAGN1_Y42_H44Y]")
0.873
>>> result("AFPGEYIPTVF [RAC1_Y32]")
0.776
>>> result("IGNGFYFRVFS [MYBPC3_Y1136_YF]")
1.05

Check the records and state phosphorylation enrichment for SSPVPYLSPET [TJP1_Y931]
0.789

Check the records and state phosphorylation enrichment for YGAHNHHPLPV [OAT_Y55_Y55H]
0.538

----------
# target or system: EPHB2 (UniProt P29323)
# Sequence (P29323 whole entry, looked up): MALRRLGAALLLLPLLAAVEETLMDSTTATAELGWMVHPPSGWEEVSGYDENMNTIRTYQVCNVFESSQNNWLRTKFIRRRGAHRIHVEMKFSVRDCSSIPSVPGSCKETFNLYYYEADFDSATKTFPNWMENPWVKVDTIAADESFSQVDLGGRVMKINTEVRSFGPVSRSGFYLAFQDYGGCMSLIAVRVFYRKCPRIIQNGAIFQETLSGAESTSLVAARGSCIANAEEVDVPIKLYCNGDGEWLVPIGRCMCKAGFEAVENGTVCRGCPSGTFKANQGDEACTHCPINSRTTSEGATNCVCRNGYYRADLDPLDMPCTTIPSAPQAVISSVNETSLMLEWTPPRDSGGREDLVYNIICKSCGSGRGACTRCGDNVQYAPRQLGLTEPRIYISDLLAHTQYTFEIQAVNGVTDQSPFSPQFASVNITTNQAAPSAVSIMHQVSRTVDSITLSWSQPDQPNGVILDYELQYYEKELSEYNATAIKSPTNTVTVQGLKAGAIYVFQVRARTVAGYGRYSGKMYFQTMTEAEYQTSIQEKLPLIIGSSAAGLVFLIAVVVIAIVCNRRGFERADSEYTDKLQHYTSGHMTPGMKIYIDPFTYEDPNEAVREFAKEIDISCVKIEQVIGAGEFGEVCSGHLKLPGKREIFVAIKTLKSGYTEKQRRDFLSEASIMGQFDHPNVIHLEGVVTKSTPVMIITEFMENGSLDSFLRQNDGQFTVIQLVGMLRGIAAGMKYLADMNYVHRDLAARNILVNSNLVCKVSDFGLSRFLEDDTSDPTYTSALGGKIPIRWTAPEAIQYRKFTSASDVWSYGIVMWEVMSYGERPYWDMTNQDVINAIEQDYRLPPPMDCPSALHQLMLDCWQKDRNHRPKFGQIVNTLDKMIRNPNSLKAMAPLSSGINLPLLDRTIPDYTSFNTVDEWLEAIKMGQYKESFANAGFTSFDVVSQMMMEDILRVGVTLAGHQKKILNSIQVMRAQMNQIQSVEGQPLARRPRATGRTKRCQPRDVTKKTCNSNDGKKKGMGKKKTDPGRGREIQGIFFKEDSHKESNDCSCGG
# assay explanation: phosphorylation enrichment, bacterial display (enrichment ratio); higher = better substrate or ligand; peptides without Tyr show the background
phosphorylation enrichment below 0.5 gives F; phosphorylation enrichment at or above it gives T.

Field: example entries. Status: answers known.
>>> label_value("VEKGSYSALLA [ABCC2_Y845]")
"F"
>>> label_value("WKEIEYEVVPD [CPS1_Y634_R638P]")
"T"
>>> label_value("YETDYYQKGGK [INSR_Y1190_R1191Q]")
"T"
>>> label_value("EKSREYDRLYE [PIK3R1_Y463]")
"T"
>>> label_value("EICTQYEAMAS [GFAP_Y242_R239C]")
"T"
>>> label_value("MSRDVYSIDYY [NTRK2_Y702_T704I]")
"T"

Form field: phosphorylation enrichment at least 0.5? Entry: WPQKLYNNFVN [MYO5C_Y526_L522P]
T

Form field: phosphorylation enrichment at least 0.5? Entry: ILDEAYVMAGA [ERBB2_Y772_V777A]
T

Form field: phosphorylation enrichment at least 0.5? Entry: RFLRGYQQDAF [HLA-A_Y137_R138Q_YF]
T

Form field: phosphorylation enrichment at least 0.5? Entry: TTKAKYKTPTY [PLD2_Y573]
F

Form field: phosphorylation enrichment at least 0.5? Entry: NVFGNYNNQSS [HNRNPA1_Y318_D314V]
F

Form field: phosphorylation enrichment at least 0.5? Entry: ETKTPYTVILI [SBDS_Y128_R126T]
T

Reference source: the supplement of paper PMC10065799
